// data source = ChEMBL document CHEMBL5137093

- experimentNotes: Relative Cmax ratio of Atazanavir in Sprague-Dawley rat at 3 ml/kg,po measured upto 24 hrs by UPLC-MS/MS analysis
- Type: ADME
- runConditions: in vivo
measure: Ratio
One number for each entry.

molecule | Ratio
COC(=O)N[C@H](C(=O)N[C@@H](Cc1ccccc1)[C@H](CN(Cc1ccc(-c2ccccn2)cc1)NC(=O)[C@@H](NC(=O)OC)C(C)(C)C)OC(=O)OC(OC(=O)C1(N)CC1)C(C)C)C(C)(C)C (stereo in doubt; 3y) | 2.1

Now for another entry.
Prompt line: For the molecule shown here, COC(=O)N[C@H](C(=O)N[C@@H](Cc1ccccc1)[C@H](CN(Cc1ccc(-c2ccccn2)cc1)NC(=O)[C@@H](NC(=O)OC)C(C)(C)C)OC(=O)OC(OC(=O)[C@@H](N)Cc1ccccc1)C(C)C)C(C)(C)C (stereo in doubt; 3v) , give the reported Ratio.
Response line: 0.5
